test system: MCF7; experiment: Growth inhibition of human MCF7 cells at 10 uM after 48 hrs by fluorescein diacetate cell viability assay relative to 4-HPR; assay type: functional
EXPERIMENTAL READOUT: Activity

- COMPOUND: "COc1ccc(NC(=O)/C=C(C)/C=C/C=C(C)/C=C/C2=C(C)CCCC2(C)C)cc1"
  TESTED ON: "MCF7"
  OBS VALUE: ">=25%"
- COMPOUND: "COC(=O)c1cc(NC(=O)/C=C(C)/C=C/C=C(C)/C=C/C2=C(C)CCCC2(C)C)ccc1O"
  TESTED ON: "MCF7"
  OBS VALUE: ">=25%"
- COMPOUND: "CC1=C(/C=C/C(C)=C/C=C/C(C)=C/C(=O)Nc2cc(Cl)ccc2O)C(C)(C)CCC1"
  TESTED ON: "MCF7"
  OBS VALUE: ">=50%"
- COMPOUND: "CC1=C(/C=C/C(C)=C/C=C/C(C)=C/C(=O)Nc2cccc(CO)c2)C(C)(C)CCC1"
  TESTED ON: "MCF7"
  OBS VALUE: ">=25%"

For the compound shown here, COC(=O)c1ccc(NC(=O)/C=C(C)/C=C/C=C(C)/C=C/C2=C(C)CCCC2(C)C)c(O)c1 , give the reported Activity. >=25%

For the compound shown here, CC1=C(/C=C/C(C)=C/C=C/C(C)=C/C(=O)N(C)c2ccc(O)cc2)C(C)(C)CCC1 , give the reported Activity. >=25%

For the compound shown here, CC1=C(/C=C/C(C)=C/C=C/C(C)=C/C(=O)Nc2ccccc2)C(C)(C)CCC1 , give the reported Activity. >=25%

For the compound shown here, CC1=C(/C=C/C(C)=C/C=C/C(C)=C/C(=O)Nc2ccc(Cl)cc2)C(C)(C)CCC1 , give the reported Activity. >=25%

For the compound shown here, CC1=C(/C=C/C(C)=C/C=C/C(C)=C/C(=O)Nc2ccc(O)c(Cl)c2)C(C)(C)CCC1 , give the reported Activity. >=50%

For the compound shown here, CC1=C(/C=C/C(C)=C/C=C/C(C)=C/C(=O)Nc2ccc([N+](=O)[O-])cc2O)C(C)(C)CCC1 , give the reported Activity. >=100%

For the compound shown here, CC1=C(/C=C/C(C)=C/C=C/C(C)=C/C(=O)Nc2ccccc2C(=O)O)C(C)(C)CCC1 , give the reported Activity. >=25%

For the compound shown here, CC1=C(/C=C/C(C)=C/C=C/C(C)=C/C(=O)Nc2ccc(C)c(O)c2)C(C)(C)CCC1 , give the reported Activity. >=100%

For the compound shown here, CC1=C(/C=C/C(C)=C/C=C/C(C)=C/C(=O)Nc2ccc(O)cc2)C(C)(C)CCC1 [FENRETINIDE] , give the reported Activity. >=100%

For the compound shown here, CC1=C(/C=C/C(C)=C/C=C/C(C)=C/C(=O)Nc2cc([N+](=O)[O-])ccc2O)C(C)(C)CCC1 , give the reported Activity. >=25%

For the compound shown here, CC1=C(/C=C/C(C)=C/C=C/C(C)=C/C(=O)Nc2ccc(Cl)c(Cl)c2)C(C)(C)CCC1 , give the reported Activity. >=25%

For the compound shown here, CC1=C(/C=C/C(C)=C/C=C/C(C)=C/C(=O)Nc2ccc(N)cc2)C(C)(C)CCC1 , give the reported Activity. >=50%

For the compound shown here, CC1=C(/C=C/C(C)=C/C=C/C(C)=C/C(=O)Nc2ccc(C)cc2O)C(C)(C)CCC1 , give the reported Activity. >=50%
